- System: Escherichia coli
- experimental-details: Antibacterial activity against Escherichia coli MC1061 by double-dilution technique
- Assay type: functional
endpoint: MIC (µg/mL)

- O=C(CSCCOCCSSCCOCCSCC(=O)N[C@H](CO)[C@H](O)c1ccc([N+](=O)[O-])cc1)N[C@H](CO)[C@H](O)c1ccc([N+](=O)[O-])cc1: 18.8
- CCC[C@@H]1C[C@@H](C(=O)N[C@H]([C@H]2O[C@H](SC)[C@H](O)[C@@H](O)[C@H]2O)[C@@H](C)SCCOCCSSCCOCCSCC(=O)N[C@@H](CO)[C@H](O)c2ccc([N+](=O)[O-])cc2)N(C)C1: 4.7
- CCC[C@@H]1C[C@@H](C(=O)NC([C@H]2O[C@H](SC)[C@H](O)[C@@H](O)[C@H]2O)[C@@H](C)SCCOCCSSCCOCCSC[C@H]2O[C@@H](O[C@@H]3[C@@H](O)[C@H](O[C@H]4O[C@H](CN)[C@@H](O)C[C@H]4N)[C@@H](N)C[C@H]3N)C(O)[C@@H](N)[C@@H]2O)N(C)C1 (single isomer, unassigned): 4.7

====

- System: Listeria monocytogenes
- experimental-details: Antibacterial activity against Listeria monocytogenes ATCC 19115 by double-dilution technique
- Format: functional
endpoint: MIC (µg/mL)

* CCC[C@@H]1C[C@@H](C(=O)N[C@H]([C@H]2O[C@H](SC)[C@H](O)[C@@H](O)[C@H]2O)[C@@H](C)SCCOCCS)N(C)C1 | 37.5
* CCC[C@@H]1C[C@@H](C(=O)N[C@H]([C@H]2O[C@H](SC)[C@H](O)[C@@H](O)[C@H]2O)[C@@H](C)SCCOCCSCC(=O)N[C@H](CO)[C@H](O)c2ccc([N+](=O)[O-])cc2)N(C)C1 | 75
* NC[C@H]1O[C@H](O[C@H]2[C@H](O)[C@@H](O[C@H]3O[C@H](CO)[C@@H](O)[C@H](N)[C@H]3O)[C@H](N)C[C@@H]2N)[C@H](N)C[C@@H]1O | 18.8
* O=C(CSCCOCCSSCCOCCSCC(=O)N[C@H](CO)[C@H](O)c1ccc([N+](=O)[O-])cc1)N[C@H](CO)[C@H](O)c1ccc([N+](=O)[O-])cc1 | 9.4

====

The molecules listed here are annotated with their MIC.
- Test system: Staphylococcus epidermidis
- experimental-details: Antibacterial activity against biofilm negative Staphylococcus epidermidis ATCC 12228 by double-dilution technique
- Format: functional
endpoint: MIC (µg/mL)

- NC[C@H]1O[C@H](O[C@H]2[C@H](O)[C@@H](O[C@@H]3O[C@H](CSCCOCCSSCCOCCSCC(=O)N[C@H](CO)[C@H](O)c4ccc([N+](=O)[O-])cc4)[C@@H](O)[C@H](N)[C@H]3O)[C@H](N)C[C@@H]2N)[C@H](N)C[C@@H]1O: 16
- CCC[C@@H]1C[C@@H](C(=O)N[C@H]([C@H]2O[C@H](SC)[C@H](O)[C@@H](O)[C@H]2O)[C@@H](C)SCCOCCS)N(C)C1: 4
- CCC[C@@H]1C[C@@H](C(=O)N[C@H]([C@H]2O[C@H](SC)[C@H](O)[C@@H](O)[C@H]2O)[C@@H](C)SCCOCCSSCCOCCSCC(=O)N[C@@H](CO)[C@H](O)c2ccc([N+](=O)[O-])cc2)N(C)C1: 2
- CCC[C@@H]1C[C@@H](C(=O)N[C@H]([C@H]2O[C@H](SC)[C@H](O)[C@@H](O)[C@H]2O)[C@@H](C)SCCOCCSCC(=O)N[C@H](CO)[C@H](O)c2ccc([N+](=O)[O-])cc2)N(C)C1: 4

====

- System: Escherichia coli
- experimental-details: Antibacterial activity against Escherichia coli MC1061 by double-dilution technique
- Assay type: functional
The molecules listed here are annotated with their MIC.
endpoint: MIC (µg/mL)

* CCC[C@@H]1C[C@@H](C(=O)N[C@H]([C@H]2O[C@H](SC)[C@H](O)[C@@H](O)[C@H]2O)[C@@H](C)SCCOCCSSCCOCCS[C@H](C)[C@H](NC(=O)[C@@H]2C[C@@H](CCC)CN2C)[C@H]2O[C@H](SC)[C@H](O)[C@@H](O)[C@H]2O)N(C)C1 | 9.4
* NC[C@H]1O[C@H](O[C@H]2[C@H](O)[C@@H](O[C@@H]3O[C@H](CSCCOCCSSCCOCCSC[C@H]4O[C@@H](O[C@@H]5[C@@H](O)[C@H](O[C@H]6O[C@H](CN)[C@@H](O)C[C@H]6N)[C@@H](N)C[C@H]5N)[C@H](O)[C@@H](N)[C@@H]4O)[C@@H](O)[C@H](N)[C@H]3O)[C@H](N)C[C@@H]2N)[C@H](N)C[C@@H]1O | 18.8
* CCC[C@@H]1C[C@@H](C(=O)N[C@H]([C@H]2O[C@H](SC)[C@H](O)[C@@H](O)[C@H]2O)[C@@H](C)SCCOCCSCC(=O)N[C@H](CO)[C@H](O)c2ccc([N+](=O)[O-])cc2)N(C)C1 | 9.4
* O=C(CSCCOCCS)N[C@H](CO)[C@H](O)c1ccc([N+](=O)[O-])cc1 | 37.5

====

- System: Bacillus subtilis
- experimental-details: Antibacterial activity against Bacillus subtilis 168 harboring AAC(6')/APH(2'')-pRB374 by double-dilution technique
- Assay type: functional
endpoint: MIC

- O=C(N[C@H](CO)[C@H](O)c1ccc([N+](=O)[O-])cc1)C(Cl)Cl: 1.2 µg/mL
- CCC[C@@H]1C[C@@H](C(=O)N[C@H]([C@H]2O[C@H](SC)[C@H](O)[C@@H](O)[C@H]2O)[C@@H](C)SCCOCCSSCCOCCS[C@H](C)[C@H](NC(=O)[C@@H]2C[C@@H](CCC)CN2C)[C@H]2O[C@H](SC)[C@H](O)[C@@H](O)[C@H]2O)N(C)C1: > 150 µg/mL
- NC[C@H]1O[C@H](O[C@H]2[C@H](O)[C@@H](O[C@@H]3O[C@H](CSCCOCCSCC(=O)N[C@H](CO)[C@H](O)c4ccc([N+](=O)[O-])cc4)[C@@H](O)[C@H](N)[C@H]3O)[C@H](N)C[C@@H]2N)[C@H](N)C[C@@H]1O: > 150 µg/mL
- O=C(CSCCOCCSCC(=O)N[C@H](CO)[C@H](O)c1ccc([N+](=O)[O-])cc1)N[C@H](CO)[C@H](O)c1ccc([N+](=O)[O-])cc1: > 150 µg/mL
- CCC[C@@H]1C[C@@H](C(=O)NC([C@H]2O[C@H](SC)[C@H](O)[C@@H](O)[C@H]2O)[C@@H](C)SCCOCCSSCCOCCSC[C@H]2O[C@@H](O[C@@H]3[C@@H](O)[C@H](O[C@H]4O[C@H](CN)[C@@H](O)C[C@H]4N)[C@@H](N)C[C@H]3N)C(O)[C@@H](N)[C@@H]2O)N(C)C1 (single isomer, unassigned): 150 µg/mL

====

- Test system: Escherichia coli
- experimental-details: Inhibition of protein synthesis in Escherichia coli S30 extracts after 90 mins by coupled transcription/translation assay
- Type: functional
- condition: 1.5 h
Binarize IC50 at 1000 nM; below is condition met, at or above is condition not met.

• CCC[C@@H]1C[C@@H](C(=O)N[C@H]([C@H]2O[C@H](SC)[C@H](O)[C@@H](O)[C@H]2O)[C@@H](C)SCCOCCSSCCOCCS[C@H](C)[C@H](NC(=O)[C@@H]2C[C@@H](CCC)CN2C)[C@H]2O[C@H](SC)[C@H](O)[C@@H](O)[C@H]2O)N(C)C1 = condition not met
• NC[C@H]1O[C@H](O[C@H]2[C@H](O)[C@@H](O[C@@H]3O[C@H](CSCCOCCS)[C@@H](O)[C@H](N)[C@H]3O)[C@H](N)C[C@@H]2N)[C@H](N)C[C@@H]1O = condition met
• O=C(CSCCOCCSCC(=O)N[C@H](CO)[C@H](O)c1ccc([N+](=O)[O-])cc1)N[C@H](CO)[C@H](O)c1ccc([N+](=O)[O-])cc1 = condition not met

====

- Test system: Listeria monocytogenes
- experimental-details: Antibacterial activity against Listeria monocytogenes ATCC 19115 by double-dilution technique
- Format: functional
endpoint: MIC (µg/mL)

- O=C(N[C@H](CO)[C@H](O)c1ccc([N+](=O)[O-])cc1)C(Cl)Cl [CHLORAMPHENICOL]: 9.4
- NC[C@H]1O[C@H](O[C@H]2[C@H](O)[C@@H](O[C@@H]3O[C@H](CSCCOCCS)[C@@H](O)[C@H](N)[C@H]3O)[C@H](N)C[C@@H]2N)[C@H](N)C[C@@H]1O: 18.8
- CCC[C@@H]1C[C@@H](C(=O)N[C@H]([C@H]2O[C@H](SC)[C@H](O)[C@@H](O)[C@H]2O)[C@@H](C)SCCOCCSSCCOCCSCC(=O)N[C@@H](CO)[C@H](O)c2ccc([N+](=O)[O-])cc2)N(C)C1: 4.7
- CCC[C@@H]1C[C@@H](C(=O)N[C@H]([C@H]2O[C@H](SC)[C@H](O)[C@@H](O)[C@H]2O)[C@@H](C)SCCOCCSSCCOCCS[C@H](C)[C@H](NC(=O)[C@@H]2C[C@@H](CCC)CN2C)[C@H]2O[C@H](SC)[C@H](O)[C@@H](O)[C@H]2O)N(C)C1: 4.7
